Test: Cyclic voltammetry (CV) studies of the redoxindicators
Format: physicochemical
Settings: vs Ag/AgCl, 0.9% NaCl at pH 7, phosphate buffer, Au working electrode, scan rate 100 mVs^−1
So I've got a bunch of molecules here, and I need their Reduction potential values.
Give bare numbers, in mV.

Sample answers from the record:
• C[N+]1=C(/C=C/c2ccc[n+](C)c2)C(C)(C)c2ccccc21.O=S(=O)([O-])C(F)(F)F.[I-] = −564
• C[N+]1=C(/C=C/c2ccc3c(ccc[n+]3C)c2)C(C)(C)c2ccccc21.O=S(=O)([O-])C(F)(F)F.[I-] [drawing 52] = −634
• C[N+]1=C(/C=C/c2cc3ccccc3[n+](C)c2)C(C)(C)c2ccccc21.O=S(=O)([O-])C(F)(F)F.[I-] [drawing 50] = −534
• CC[n+]1cc(/C=C/C2=[N+](C)c3ccccc3C2(C)C)cc2ccccc21.O=S(=O)([O-])C(F)(F)F.[I-] = −524
• C[N+]1=C(/C=C/c2c[n+](C)cc3ccccc23)C(C)(C)c2ccccc21.O=S(=O)([O-])C(F)(F)F.[I-] = −424

// below: Reduction potential requested for another molecule
Input `CC[n+]1cc(/C=C/C2=[N+](C)c3ccccc3C2(C)C)c2ccccc2c1.O=S(=O)([O-])C(F)(F)F.[I-]` . Output Reduction potential: −454
